# test_method_notes: NCI Yeast Anticancer Drug Screen. Data for the mgt1 strain (AID 153)
# measurement_parameters: S. cerevisiae mgt1 mutant growth inhibition; at 33.0 µM
This is part of a sample that, as a whole, favours compounds with a hit. Of some 79,000 tested, about 15% had one in any assay. The source made the active and inactive calls. Rule as the data show it: active = growth inhibition above about 70%; inactive = the rest.
Form entry, call: pick from active, inactive

Before answering, review these 4 worked examples.
Query block: Hi, sorry to bother you, what did the test record for COc1cc2c(cc1C[N+](C)(C)CSc1ccccc1)-c1ccccc1CC2 ?
Result block: active

Query block: Hi, sorry to bother you, what did the test record for COc1ccc2c(c1)[nH]c1c(/C=C/c3ccccc3)nccc12 ?
Result block: active

Query block: Hi, sorry to bother you, what did the test record for CC[C@@]1(OC(=O)CCC(=O)O)C(=O)OCc2c1cc1n(c2=O)Cc2cc3ccccc3nc2-1 ?
Result block: inactive

Query block: Hi, sorry to bother you, what did the test record for CCOC(=O)C1=C(C)NC(C)=C(C(=O)OCC)C1c1ccccc1Cl ?
Result block: inactive

Next up:
Query block: Hi, sorry to bother you, what did the test record for C=C(C)[C@@H]1CCc2c(O)c(O)c(=O)cc(C)c2C1 ?
Result block: active
